// provenance: patent US7598417B2

Target: alpha2B receptor (Homo sapiens)
Construct: expressed in transfected cells; host or cells: NIH-3T3
Sequence (P18089 1-450): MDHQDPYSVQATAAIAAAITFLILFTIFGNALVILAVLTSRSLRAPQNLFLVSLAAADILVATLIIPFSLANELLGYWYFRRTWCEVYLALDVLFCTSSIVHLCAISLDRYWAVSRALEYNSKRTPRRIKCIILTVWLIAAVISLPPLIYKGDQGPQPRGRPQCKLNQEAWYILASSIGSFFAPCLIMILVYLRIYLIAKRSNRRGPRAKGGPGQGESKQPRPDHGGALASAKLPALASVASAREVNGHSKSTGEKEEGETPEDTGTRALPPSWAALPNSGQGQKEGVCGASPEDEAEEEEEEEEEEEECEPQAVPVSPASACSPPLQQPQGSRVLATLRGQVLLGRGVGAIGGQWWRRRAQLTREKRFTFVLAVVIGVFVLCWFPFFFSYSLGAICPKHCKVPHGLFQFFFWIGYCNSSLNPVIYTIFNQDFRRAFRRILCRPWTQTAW
Test: Receptor Selection and Amplification Technology (RSAT) assay, alpha2B
Format: cell-based
Conditions: ratio of maximal effect of the drug to maximal effect of standard full agonist brimonidine (UK14304)
endpoint: Alpha 2B IA (intrinsic activity)

Value lookup for Alpha 2B IA (intrinsic activity); key = O=C(NCCF)NC1CCc2cc(Br)ccc21 (centres unmarked)
0.31

Value lookup for Alpha 2B IA (intrinsic activity); key = O=C(NCCF)NC1Cc2ccc(Cl)cc2C1 (centres unmarked)
0.31

Value lookup for Alpha 2B IA (intrinsic activity); key = O=C(NCCF)NC1CCc2cccc(Cl)c21 (centres unmarked)
1.05

Value lookup for Alpha 2B IA (intrinsic activity); key = O=C(NCCF)NC1CCc2ccc(Cl)c(Cl)c21 (centres unmarked)
1.0

Value lookup for Alpha 2B IA (intrinsic activity); key = Nc1cccc2c1CCC2NC(=O)NCCF (centres unmarked)
1.0

Value lookup for Alpha 2B IA (intrinsic activity); key = O=C(NCCF)NC1CCc2ccccc21 (centres unmarked)
1.21

Value lookup for Alpha 2B IA (intrinsic activity); key = CC1=C(C=O)CCCC1NC(=O)NCCF (centres unmarked)
0.81

Value lookup for Alpha 2B IA (intrinsic activity); key = O=C(NCCF)NC1CCc2cc(F)ccc21 (centres unmarked)
0.59

Value lookup for Alpha 2B IA (intrinsic activity); key = Cc1ccc2c(c1)C(NC(=O)NCCF)CC2 (centres unmarked)
0.88

Value lookup for Alpha 2B IA (intrinsic activity); key = Cc1ccc2c(c1)CCC2NC(=O)NCCF (centres unmarked)
0.71

Value lookup for Alpha 2B IA (intrinsic activity); key = O=C(NCCF)NC1CCc2ccccc2C1 (centres unmarked)
0.63

Value lookup for Alpha 2B IA (intrinsic activity); key = CCc1cccc2c1CCCC2NC(=O)NCCF (centres unmarked)
0.93

Value lookup for Alpha 2B IA (intrinsic activity); key = CCC1=CCCCC1NC(=O)NCCF (centres unmarked)
1.22

Value lookup for Alpha 2B IA (intrinsic activity); key = O=C(NCCF)NC1CCc2c(Cl)cccc21 (centres unmarked)
1.03
